Tested on: H9c2
Test: Cytoprotective activity against H2O2-induced oxidative damage in rat H9c2 cells assessed as cell viability at 20 uM preincubated for 24 hrs followed by H2O2 treatment for another 1.5 hrs by MTT assay (reference value: 32.52 to 44.40%)
Type: functional
Details: time 25.5 hrs, read-out: Activity
Known viability at 20 µM of a selection of compounds
Reply with just the number (in %).

Answered examples (3):
>>> df
                            chemical_string  result_number
0  O=C(CSc1nnc(-c2cccnc2)o1)NC(=O)Nc1ccccc1           39.2
1  COc1ccccc1NC(=O)NC(=O)CSc1nnc(-c2ccccc2)o1             47
2  COCCCNC(=O)NC(=O)CSc1nnc(-c2ccc(O)cc2)o1           69.5

Noted for O=C(CSc1nnc(-c2ccc(O)cc2)o1)NC(=O)Nc1nccs1 : its viability at 20 µM reads 36.8

Noted for O=C(CSc1nnc(-c2ccncc2)o1)NC(=O)Nc1ccccc1 : its viability at 20 µM reads 48.5

Noted for COc1ccc(NC(=O)NC(=O)CSc2nnc(-c3ccccc3)o2)cc1 : its viability at 20 µM reads 88.4

---

Known viability at 20 µM of a selection of compounds
System: H9c2
Test: Cytoprotective activity against H2O2-induced oxidative damage in rat H9c2 cells assessed as cell viability at 20 uM preincubated for 24 hrs followed by H2O2 treatment for another 1.5 hrs by MTT assay (reference value: 32.52 to 44.40%)
Type: functional
Conditions: time 25.5 hrs, read-out: Activity
Please provide the amount together with its unit, number first.

Answered examples (4):
>>> df
                            chemical_string  result
0     O=C(CSc1nnc(-c2ccc(O)cc2)o1)Nc1ccccn1   55.3%
1  Cc1cccc(-c2nnc(SCC(=O)NC(=O)Nc3ccccn3)o2)c1   53.5%
2  O=C(CSc1nnc(-c2ccc(O)cc2)o1)NC(=O)Nc1ccccn1   85.2%
3  O=C(CSc1nnc(-c2ccccc2O)o1)NC(=O)Nc1ccccc1   60.7%

Now examine the next entry.
Noted for O=C(CSc1nnc(-c2ccc(O)cc2)o1)NC(=O)Nc1cccnc1 : its viability at 20 µM reads 64.8%

---

Tested on: H9c2
Assay: Cytoprotective activity against H2O2-induced oxidative damage in rat H9c2 cells assessed as cell viability at 20 uM preincubated for 24 hrs followed by H2O2 treatment for another 1.5 hrs by MTT assay (reference value: 32.52 to 44.40%)
Format: functional
Conditions: time 25.5 hrs, read-out: Activity
Binary call on viability at 20 µM with cut-off 40%: strictly below means yes, and equality or higher means no.

Example results:
>>> print(df.to_string())
                            chemical_string  class_label
0  COc1ccc(NC(=O)NC(=O)Cn2cc(CSc3nnc(-c4ccccc4)o3)nn2)cc1          yes
1  O=C(CSc1nnc(-c2ccccc2)o1)NC(=O)Nc1ccccc1           no
2    COc1ccc(NC(=O)CSc2nnc(-c3ccccc3)o2)cc1           no
3  O=C(CSc1nnc(-c2ccc(Cl)cc2)o1)NC(=O)Nc1ccccn1           no
4  O=C(CSc1nnc(-c2cccc(Cl)c2)o1)NC(=O)Nc1ccccc1           no

## Task Does Cc1ccc(-c2nnc(SCC(=O)NC(=O)Nc3ccccc3)o2)cc1 have viability at 20 µM strictly under 40%?
## Result no

## Task Does O=C(Cn1cc(CSc2nnc(-c3ccc(O)cc3)o2)nn1)NC(=O)Nc1ccccn1 have viability at 20 µM strictly under 40%?
## Result yes

## Task Does Cc1ccc(NC(=O)NC(=O)CSc2nnc(-c3ccccc3)o2)cc1 have viability at 20 µM strictly under 40%?
## Result no

## Task Does O=C(CSc1nnc(-c2ccccn2)o1)NC(=O)Nc1ccccn1 have viability at 20 µM strictly under 40%?
## Result no

## Task Does O=C(CSc1nnc(-c2ccc(Cl)cc2)o1)NC(=O)Nc1ccccc1 have viability at 20 µM strictly under 40%?
## Result no

---

Tested on: H9c2
Test: Cytoprotective activity against H2O2-induced oxidative damage in rat H9c2 cells assessed as cell viability at 20 uM preincubated for 24 hrs followed by H2O2 treatment for another 1.5 hrs by MTT assay (reference value: 32.52 to 44.40%)
Type: functional
Conditions: time 25.5 hrs, read-out: Activity
property_measured: viability at 20 µM

Answered examples (5):
                            chemical_string  target_system  result
0  O=C(CSc1nnc(-c2cccnc2)o1)NC(=O)Nc1ccccn1           H9c2   40.5%
1  O=C(CSc1nnc(-c2ccc(O)cc2)o1)NC(=O)NN1CCCCC1           H9c2   29.2%
2  O=C(CSc1nnc(-c2ccccc2)o1)NC(=O)Nc1ccccn1           H9c2   72.5%
3  Cc1ccccc1-c1nnc(SCC(=O)NC(=O)Nc2ccccc2)o1           H9c2     56%
4  CC(C)c1ccc(NC(=O)NC(=O)CSc2nnc(-c3ccccc3)o2)cc1           H9c2   38.9%

Noted for O=C(CSc1nnc(-c2ccccc2)o1)NC(=O)Nc1ccc(Cl)cc1 : its viability at 20 µM reads 37.6%

Noted for O=C(CSc1nnc(-c2ccccc2)o1)NC(=O)Nc1ccccc1Cl : its viability at 20 µM reads 34.5%

Noted for COc1cccc(NC(=O)NC(=O)CSc2nnc(-c3ccccc3)o2)c1 : its viability at 20 µM reads 22.6%

Noted for O=C(CSc1nnc(-c2ccccc2)o1)NC(=O)Nc1cccc(Cl)c1 : its viability at 20 µM reads 34%

Noted for O=C(CSc1nnc(-c2ccccc2Cl)o1)NC(=O)Nc1ccccn1 : its viability at 20 µM reads 42.6%

Noted for COc1cc(NC(=O)NC(=O)CSc2nnc(-c3ccccc3)o2)cc(OC)c1OC : its viability at 20 µM reads 43%

---

System: H9c2
Assay: Cytoprotective activity against H2O2-induced oxidative damage in rat H9c2 cells assessed as cell viability at 20 uM preincubated for 24 hrs followed by H2O2 treatment for another 1.5 hrs by MTT assay (reference value: 32.52 to 44.40%)
Assay type: functional
Details: time 25.5 hrs, read-out: Activity
property_measured: viability at 20 µM (%)
Reply with just the number (in %).

In [3]: df
Out[3]:
                            chemical_string  target_system   property_measured  result_number
0  Cc1cccc(-c2nnc(SCC(=O)NC(=O)Nc3ccccc3)o2)c1           H9c2  viability at 20 µM           46.7
1  COc1ccc(NC(=O)NC(=O)CSc2nnc(-c3ccccc3)[nH]2)cc1           H9c2  viability at 20 µM           64.4
2  COc1ccc(NC(=O)NC(=O)CSc2nnc(-c3ccc(O)cc3)o2)cc1           H9c2  viability at 20 µM           60.5

Noted for Cc1ccc(-c2nnc(SCC(=O)NC(=O)Nc3ccccn3)o2)cc1 : its viability at 20 µM reads 70.9

---

System: H9c2
Test: Cytoprotective activity against H2O2-induced oxidative damage in rat H9c2 cells assessed as cell viability at 20 uM preincubated for 24 hrs followed by H2O2 treatment for another 1.5 hrs by MTT assay (reference value: 32.52 to 44.40%)
Type: functional
Details: time 25.5 hrs, read-out: Activity
Known viability at 20 µM of a selection of compounds
Reply with just the number (in %).

Answered examples (5):
In [3]: df
Out[3]:
                            chemical_string   property_measured  result_number
0  O=C(CSc1nnc(-c2ccccn2)o1)NC(=O)Nc1ccccc1  viability at 20 µM           35.5
1  O=C(CSc1nnc(-c2ccc(O)cc2)o1)NC(=O)Nc1ccccc1  viability at 20 µM           71.7
2  O=C(CSc1nnc(-c2ccc(O)cc2)o1)NC(=O)Nc1ncccn1  viability at 20 µM           59.1
3        O=C(CSc1nnc(-c2ccccc2)o1)Nc1ccccc1  viability at 20 µM           46.6
4  Cc1ccccc1-c1nnc(SCC(=O)NC(=O)Nc2ccccn2)o1  viability at 20 µM           66.5

Now examine the next entry.
Noted for O=C(CSc1nnc(-c2ccccc2O)o1)NC(=O)Nc1ccccn1 : its viability at 20 µM reads 65.7

---

Tested on: H9c2
Assay: Cytoprotective activity against H2O2-induced oxidative damage in rat H9c2 cells assessed as cell viability at 20 uM preincubated for 24 hrs followed by H2O2 treatment for another 1.5 hrs by MTT assay (reference value: 32.52 to 44.40%)
Type: functional
Settings: time 25.5 hrs, read-out: Activity
Known viability at 20 µM of a selection of compounds
Reply with just the number (in %).

Answered examples (5):
>>> df
                            chemical_string   property_measured  result_number
0  O=C(CSc1nnc(-c2ccncc2)o1)NC(=O)Nc1ccccn1  viability at 20 µM           45.3
1  O=C(CSc1nnc(-c2ccccc2Cl)o1)NC(=O)Nc1ccccc1  viability at 20 µM           40.9
2  O=C(CSc1nnc(-c2cccc(Cl)c2)o1)NC(=O)Nc1ccccn1  viability at 20 µM           48.4
3  COc1ccc(NC(=O)CSc2nnc(-c3ccc(O)cc3)o2)cc1  viability at 20 µM           42.9
4        O=C(CSc1nnc(-c2ccccc2)o1)Nc1ccccn1  viability at 20 µM           41.4

Now examine the next entry.
Noted for O=C(CSc1nnc(-c2ccc(O)cc2)o1)NC(=O)NN1CCOCC1 : its viability at 20 µM reads 44.2

src = ChEMBL document CHEMBL5338705
